assay: Confirmation screen for delayed death inhibitors of the malarial parasite plastid, 48 hour incubation; also: nearly all actives have a fitted effect of over 65% in size; conditions: P. falciparum-infected erythrocytes, luciferase growth; series mostly up to 28.7 µM
Among all 2,300 compounds or so, about 1,200 (52%) were called active. Inconclusive results (about 34%) are left out. Calls follow the shape of the dose curve; as a rule, active = well fitted inhibition curve with a large enough effect; inconclusive = small, poorly fitted or top-dose-only effect, or effect the other way; inactive = no such curve, though single readings can be large or run the other way. The set was probably picked from earlier hits. This is one part of the list.
The categories you may choose from are y for active, n for inactive

molecule="CC[C@@H](C)C(NC(=O)OC(C)(C)C)c1cn([C@@H](Cc2ccc(O)cc2)C(=O)N2CCN(C(=O)OC(C)(C)C)CC2)nn1 (some centres not stated)" class_name=y
molecule=CCCN1CCc2c(sc3nc(SCC)n(-c4ccccc4)c(=O)c23)C1 class_name=y
molecule=CCCSc1ccc(-c2nn(-c3ccccc3)cc2/C=C(/C#N)C(=O)NCCCOC)cc1 class_name=y

Q: What classification did O=c1[nH]c(C(F)(F)F)nc2ccc3ccccc3c12 end up with in this test?
A: n

Q: Look up the recorded call for Cc1cc(C)c(OCC(O)CNC(C)(C)C)c(C)c1 (configuration not stated) in this test.
A: y

Q: Entry COc1ccc(NC(=S)N(CCCN2CCCCCC2)Cc2cccs2)cc1 : call = ?
A: y

Q: Hello, I am checking results. What call was entered for COc1ccc(Nc2nnc(-c3ccccc3)c3ccccc23)cc1C(=O)N1CCCCC1 ?
A: y

Q: Recorded test outcome, item C=CCSC(=C(C#N)C#N)c1cc2c([nH]1)CCCC2
A: y

Q: Hi, sorry to bother you, what did the test record for CCN1CCN(Cc2c(O)ccc3c2O/C(=C\C=C\c2ccccc2)C3=O)CC1 ?
A: y

Q: Recorded test call requested for O=C(C[n+]1ccccc1)Nc1ccc(Cl)c([N+](=O)[O-])c1
A: y

Q: Tell me the assay call for CC(C)c1cc(NC(=O)CCl)on1 please.
A: y

Q: Test call, this molecule: Cc1ccc(NC(=O)c2cc(C(C)(C)C)nn2Cc2ccccc2)cc1
A: y
